B1: library; a variant is named by its letters at N, in order (parent)
chain: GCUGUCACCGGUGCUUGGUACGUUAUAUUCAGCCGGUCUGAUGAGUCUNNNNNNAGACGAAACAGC

Variants of: B1
Assay: normalized RNA/DNA level with ligand (relative to sTRSVctl = 100) (log10 (% of sTRSVctl)); HEK293T overexpressing SLC46A1; ligand concentration (+) RNA-Seq: 6 mM; higher = less ribozyme self-cleavage, higher mRNA level
Settings: with (6R,S)-folinic acid; ligand present: yes
readout: normalized RNA/DNA level with ligand (log10)

Some solved entries appear below for comparison.
{"variant.spec": "AUCAAC", "recorded.result": 2.01}
{"variant.spec": "CGAGCU", "recorded.result": 2.03}
{"variant.spec": "GCCUAG", "recorded.result": 2.05}
{"variant.spec": "CCUCUG", "recorded.result": 2}
{"variant.spec": "CUGGAA", "recorded.result": 1.97}

Give measured normalized RNA/DNA level with ligand (log10) for every item shown.
1. AAGACC
2. CCGUCU
3. UUACAC

result:
[2.03, 2.05, 1.99]

Give measured normalized RNA/DNA level with ligand (log10) for every item shown.
1. UUACGC
2. CCUUCA
3. UUCUGU
4. GCGAGU
5. GCGCUC
6. UGCCCU
7. CCACAA

result:
1. 2
2. 2.04
3. 2.05
4. 2.03
5. 2.01
6. 2.06
7. 1.96

Give measured normalized RNA/DNA level with ligand (log10) for every item shown.
1. AGGCAG
2. CCAGUC
3. UUUGGU
4. AAUUGA
5. AAUAUA
6. UUCGAC
7. GUAGUC

result:
[1.99, 2.03, 1.98, 2, 1.99, 2.02, 2.03]

Origin of the recorded values: the supplement of paper PMC6757056
